Experiment: Antagonist activity at GluR1 expressed in Xenopus laevis oocytes assessed as inhibition of glutamate-induced current at -60mV holding potential by two-electrode voltage-clamp electrophysiology
Field: pIC50. Provide a value for each of the molecules that follow.
The quantity pIC50 is defined as the negative base-10 logarithm of the molar concentration.

Note to self: pIC50 recorded for NCCCNCCCCNCCCNC(=O)[C@H](CC1CCCCC1)NC(=O)Cc1cccc2ccccc12 was 7.39

Note to self: pIC50 recorded for NCCCNCCCCNCCCNC(=O)[C@H](CC1CCCCC1)NC(=O)c1ccc(-c2ccccc2)cc1 was 7.06

Note to self: pIC50 recorded for NCCCNCCCCNCCCNC(=O)[C@H](CC1CCCCC1)NC(=O)C1CCCCC1 was 7.68

Note to self: pIC50 recorded for CCCC(=O)N[C@@H](CC1CCCCC1)C(=O)NCCCNCCCCNCCCN was 7.49

Note to self: pIC50 recorded for NCCCNCCCCNCCCNC(=O)[C@H](CC1CCCCC1)NC(=O)CC12CC3CC(CC(C3)C1)C2 was 6.98
